Where these numbers come from: PubChem BioAssay

target: Torsin-1A-interacting protein 1 (Homo sapiens); test: compound microarray binding of lysate hLAP1 – cell lysate, small-molecule microarray, COS7 lysate, 635/667 nm fluorescence, primary screen (AID 1116); details: 635 nm fluorescence, higher = more signal
measure_name: composite z-score
Please give only the number in your answer, with no unit.

Here's what some known entries look like.
O=C1OCC=C[C@H]2OC34C=CCN(CCN5CCOCC5)C(=O)[C@H]3N(CCO)C(=O)[C@@H]4[C@@H]12 (some centres undefined) = 0.0486
C=CC[C@]1(C(N)=O)COC(c2ccc(OCCCO)cc2)=N1 = 0.837
CO[C@H]1O[C@H](CO)[C@@H](OC(=O)Nc2cccc(F)c2)[C@H](OC(=O)Nc2ccccc2)[C@H]1OC(=O)Nc1ccccc1 = 1.29

Turning now to a further record.
Torsin-1A-interacting protein 1 (Homo sapiens) assay, molecule C=CCC(OC(C)=O)[C@@H]1[C@@H](N(Cc2ccc(-c3ccccc3)cc2)C(=O)Cc2ccc(F)cc2)c2cc(OCCCO)ccc2N1C(=O)c1ccc2ccccc2c1 (some centres undefined) , recorded composite z-score = 0.402
